biological target: human GPR40 receptor (Homo sapiens, UniProt O14842); test: IP1 accumulation measurements using the IPOne assay system; conditions: 1321N1 cells stably expressing human GPR40 receptor, stimulation 1 h at 37° C.
Sequence (O14842 whole entry): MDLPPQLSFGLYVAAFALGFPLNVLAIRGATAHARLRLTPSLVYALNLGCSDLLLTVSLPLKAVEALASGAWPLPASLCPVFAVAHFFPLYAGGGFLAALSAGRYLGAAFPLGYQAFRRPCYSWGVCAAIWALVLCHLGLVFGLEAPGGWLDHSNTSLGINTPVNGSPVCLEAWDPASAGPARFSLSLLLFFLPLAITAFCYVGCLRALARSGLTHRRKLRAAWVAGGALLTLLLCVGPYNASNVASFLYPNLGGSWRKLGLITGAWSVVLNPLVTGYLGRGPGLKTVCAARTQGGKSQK
pEC50: −log10 of the molar value.
outcome.measure: pEC50

Record excerpt, results attached:
Cc1cc(OCC(C)(C)O)cc(C)c1-c1cc(CNc2ccc([C@H]3C[C@@H]3C(=O)O)cn2)c(F)cc1F [Example 83]: 6.98
Cc1cc(OCCC(C)(C)O)cc(C)c1-c1cc(CNc2ccc([C@H]3C[C@@H]3C(=O)O)cn2)c(F)cc1F [Example 2]: 7.38
Nc1cc(F)c(-c2ccc(F)c(CNc3ccc([C@H]4C[C@@H]4C(=O)O)cn3)c2)c(F)c1 [Example 28]: 5.17

a: Cc1cc(O[C@@H]2CCOC2)cc(C)c1-c1cc(CNc2ccc([C@H]3C[C@@H]3C(=O)O)cn2)c(F)cc1F [Example 80]
b: Cc1cc(OCCC(C)(C)O)cc(C)c1-c1cc(CNc2ccc([C@H]3C[C@@H]3C(=O)O)cn2)ccc1C(F)(F)F [Example 5]
c: O=C(O)[C@H]1C[C@@H]1c1ccc(NCc2cc(-c3c(F)cc(F)cc3F)c(F)cc2F)nc1 [Example 81]
d: Cc1cc(O[C@H]2CCOC2)cc(C)c1-c1ccc(F)c(CNc2ccc([C@H]3C[C@@H]3C(=O)O)cn2)c1 [Example 38]
Q. Hi! Can you put these in order of pEC50, lowest number first? Give the labels in the order specified.
A. c, d, a, b
